Source: patent US7405063B2

# System: C. tropicalis
# assay.overview: Toxicity tests of additional substrates (absorbance at 600 nm)
# Format: cell-based
# run.parameters: substrate concentration 1.0%, 24 hours, added without solvent
Outcome: yes for Absorbance at 600 nm of at least 7; no for anything lower.

CCCCCCOCCCCCC | no

## Task Exam item: decide whether the reported Absorbance at 600 nm for "CCCCCCc1ccsc1" is at least 7.
## Result no

## Task Exam item: decide whether the reported Absorbance at 600 nm for CCCCCCC(CO)CCCC (stereo not drawn) is at least 7.
## Result no

## Task Exam item: decide whether the reported Absorbance at 600 nm for "CCCCC(C(=O)O)C(=O)O" is at least 7.
## Result yes

## Task Exam item: decide whether the reported Absorbance at 600 nm for "CCCCC1CCCCC1" is at least 7.
## Result yes

## Task Exam item: decide whether the reported Absorbance at 600 nm for "C=CCCCCCCCCCCCCCC" is at least 7.
## Result yes
